# reported pest or weed control at 250 g/ha; entries follow
tested on: rice (Oryra sativa); assay: Test B flooded paddy test; format: in vivo; details: Oryza sativa, 250 g ai/ha, Flood; 0 to 100 scale where 0 is no effect and 100 is complete control; read-out: Rice plant response rating
Number in %, nothing else.

Reference set, count: 3
compound: Cc1nc([C@H]2CNC(=O)[C@@H]2C(=O)Nc2ccccc2F)cs1 [Compound 1179]
measuredAttribute: pest or weed control at 250 g/ha
quantitativeReadout: 0
//
compound: Cc1ccc([C@H]2CCN(C)C(=O)[C@@H]2C(=O)Nc2ccc(F)c(F)c2F)cc1 [Compound 1221]
measuredAttribute: pest or weed control at 250 g/ha
quantitativeReadout: 0
//
compound: COCOCc1ccccc1NC(=O)[C@H]1C(=O)N(C)C[C@@H]1c1cccc(C(F)(F)F)c1 (racemic) [Compound 1161]
measuredAttribute: pest or weed control at 250 g/ha
quantitativeReadout: 15

Please find the next compound below.
Form field - read-out: pest or weed control at 250 g/ha; system: rice (Oryra sativa); submitted item: COc1cc([C@H]2CN(C)C(=O)[C@@H]2C(=O)Nc2cccc(F)c2C)ccc1F [Compound 1300]
25

* * *

Property: pest or weed control at 62.5 g/ha; scope: individual molecules
System: barnyardgrass (Echinochloa crus-galli)
Assay: Test G Post-Emergence Protocol
Type: in vivo
Details: Echinochloa crus-galli, post-emergence, 312 h, 62.5 g ai/ha, evaluated after 13 days, 100=total damage to plant, 0=no damage to plant, read-out: Barnyardgrass damage rating
From the text: Seeds of corn (Zea mays), giant foxtail (Setaria faberi), barnyardgrass (Echinochloa crus-galli), ivy-leaved morning glory (Ipomoea hederacea), redroot pigweed (Amaranthus retroflexus) and velvetleaf (Abutilon theophrasti) were sown in standard soil in pots. […]
Use % as the unit, but write only the number.

Before answering, review these 8 worked examples.
molecule: CN1C[C@H](c2ccc(Cl)cc2)[C@@H](C(=O)Nc2cccnc2F)C1=O
quantitativeReadout: 60
--
molecule: COc1ncc([C@@H]2CN(C)C(=O)[C@H]2C(=O)Nc2cccc(F)c2F)cc1Cl (racemic)
quantitativeReadout: 70
--
molecule: CN1C[C@H](c2ccc(C(F)(F)F)cc2)[C@@H](C(=O)Nc2cccc3ccsc23)C1=O (racemic)
quantitativeReadout: 10
--
molecule: CCOc1cc([C@@H]2CN(C)C(=O)[C@H]2C(=O)Nc2cccc(F)c2C)ccc1F (racemic)
quantitativeReadout: 50
--
molecule: COc1c(F)cc(C2CN(C)C(=O)C2C(=O)Nc2cccc(F)c2F)cc1F (stereo not shown)
quantitativeReadout: 70
--
molecule: CC(C)OC(=O)c1cc([C@H]2CN(C)C(=O)[C@@H]2C(=O)Nc2ccccc2F)ccc1F (racemic)
quantitativeReadout: 40
--
molecule: CN1C[C@H](c2ccc(C(F)(F)F)cc2)[C@@H](C(=O)Nc2cnccc2C#N)C1=O (racemic)
quantitativeReadout: 0
--
molecule: CON1C[C@H](c2ccc(C(F)(F)F)cc2)[C@@H](C(=O)Nc2cccc(F)c2F)C1=O (racemic)
quantitativeReadout: 70

Moving on to the next molecule.
Name the reported pest or weed control at 62.5 g/ha value associated with the molecule Cc1ccc([C@H]2CN(C)C(=O)[C@@H]2C(=O)Nc2ccc3cccnc3n2)cc1 (racemic)
0

* * *

system: redroot pigweed (Amaranthus retroflexus); experiment: Test G Post-Emergence Protocol; type: in vivo; conditions: Amaranthus retroflexus, post-emergence, 312 h, 15.625 g ai/ha, evaluated after 13 days (100=total damage to plant; 0=no damage to plant), read-out: Pigweed, Redroot damage rating
measuredAttribute: pest or weed control at 15.625 g/ha

Use the examples below as a reference point.
compound: CN1C[C@H](c2ccnc(C(C)(C)C)n2)[C@@H](C(=O)Nc2ccc(F)c(F)c2F)C1=O (racemic)
experimentalSystem: redroot pigweed (Amaranthus retroflexus)
pest or weed control at 15.625 g/ha: 0%
//
compound: CN1C[C@H](c2ccc(Cl)cc2)[C@@H](C(=O)Nc2cccnc2F)C1=O
experimentalSystem: redroot pigweed (Amaranthus retroflexus)
pest or weed control at 15.625 g/ha: 0%
//
compound: CC(C)Oc1cc(OC(F)(F)F)cc(C2CN(C)C(=O)C2C(=O)Nc2cccc(F)c2F)c1 (stereo not shown)
experimentalSystem: redroot pigweed (Amaranthus retroflexus)
pest or weed control at 15.625 g/ha: 20%
//
compound: CN1C[C@@H](c2cnc(Cl)c(Cl)c2)[C@H](C(=O)Nc2cccc(F)c2F)C1=O (racemic)
experimentalSystem: redroot pigweed (Amaranthus retroflexus)
pest or weed control at 15.625 g/ha: 20%
//
compound: CN1C[C@@H](c2ccc(Cl)nc2)[C@H](C(=O)Nc2cccc(F)c2F)C1=O (racemic)
experimentalSystem: redroot pigweed (Amaranthus retroflexus)
pest or weed control at 15.625 g/ha: 0%

What pest or weed control at 15.625 g/ha value was documented for this compound, CC(C)c1cc([C@H]2CN(C)C(=O)[C@@H]2C(=O)Nc2cccc(F)c2F)cnn1 (racemic) ?
0%

# pest or weed control at 15.625 g/ha lookup, item CC(C)OC(=O)c1cc([C@H]2CN(C)C(=O)[C@@H]2C(=O)Nc2ccccc2F)ccc1F (racemic)
0%

* * *

A collection of compounds and their measured melting point

Below are worked cases with known answers.
compound: CN1C[C@H](c2ccc(C(F)(F)F)cc2)[C@@H](C(=O)Nc2cccc(F)c2Br)C1=O [Compound 937]
melting point: 160 to 163 °C

compound: CN1CC[C@H](c2cccc(C(F)(F)F)c2)[C@@H](C(=O)Nc2cccc(F)c2F)C1=O [Compound 1330]
melting point: 54 to 57 °C

compound: O=C1NC[C@H](c2cncc(C(F)(F)F)c2)[C@H]1C(=O)Nc1cccc(F)c1F [Compound 1394]
melting point: 206 to 209 °C

Would you kindly share the measured melting point for CN1CC(c2cccc(C=O)c2)C(C(=O)Nc2ccccc2F)C1=O (centres unmarked) [Compound 844] ?
133 to 136 °C

Look at this compound and give its reported melting point. CN1C[C@H](c2cc(F)cc(F)c2)[C@@H](C(=O)NC2CCc3ccccc32)C1=O (some centres unmarked) [Compound 755]
135 to 139 °C

Could you share which melting point value was measured for O=C1NC[C@H](c2cc(C(F)(F)F)ccn2)[C@H]1C(=O)Nc1cccc(F)c1F (racemic) [Compound 1376] ?
146 to 150 °C

Given the compound Cc1cc([C@H]2CN(C)C(=O)[C@@H]2C(=O)Nc2cccc(F)c2F)no1 [Compound 1237] , what is its reported melting point?
97 to 101 °C

Recorded melting point of CC(O)c1ccccc1NC(=O)C1C(=O)N(C)CC1c1cccc(C(F)(F)F)c1 (centres unmarked) [Compound 1147] , please.
107.5 to 115.4 °C

* * *

This listing pairs compounds with measured pest or weed control at 125 g/ha.
tested on: pigweed (Amaranthus retroflexus); test: Test A preemergence; format: in vivo; settings: Amaranthus retroflexus, pre-emergence, 240 h, Preemergence, 125 g ai/ha; 0 to 100 scale (0 no effect, 100 complete control); read-out: Plant response rating, Pigweed
Numeric answer only, unit % assumed.

querySmiles: CN1C[C@H](c2ccc(C(F)(F)F)cc2)[C@@H](C(=O)Nc2ccc(F)nc2F)C1=O
unit: %
quantitativeReadout: 100

querySmiles: COc1c([C@H]2CN(C)C(=O)[C@@H]2C(=O)Nc2ccccc2F)cccc1C(F)(F)F
unit: %
quantitativeReadout: 0

Now consider the entry below.
Entry Cc1ccc([C@H]2CN(C)C(=O)[C@@H]2C(=O)Nc2cccc(F)n2)cc1 has what pest or weed control at 125 g/ha?
0

* * *

pest or weed control at 62.5 g/ha listing for selected molecules.
Tested on: giant foxtail (Setaria faberi)
Experiment: Test G Pre-Emergence Protocol
Format: in vivo
Conditions: Setaria faberi, pre-emergence, 312 h, 62.5 g ai/ha, evaluated after 13 days, 100=total damage to plant, 0=no damage to plant, read-out: Foxtail, Giant damage rating
Description: Seeds of corn (Zea mays), giant foxtail (Setaria faberi), barnyardgrass (Echinochloa crus-galli), ivy-leaved morning glory (Ipomoea hederacea), redroot pigweed (Amaranthus retroflexus) and velvetleaf (Abutilon theophrasti) were sown in standard soil in pots. […]
The figure you give is taken to be in %; do not add the unit.

molecule: COc1ncc([C@@H]2CN(C)C(=O)[C@H]2C(=O)Nc2cccc(F)c2F)cc1Cl (racemic)
pest or weed control at 62.5 g/ha, %: 90

Field request: pest or weed control at 62.5 g/ha | item: CN1C[C@H](c2ccc(C(F)F)cc2)[C@@H](C(=O)Nc2cccc(F)c2F)C1=O (racemic)
90

Report pest or weed control at 62.5 g/ha for CCOc1cc([C@@H]2CN(C)C(=O)[C@H]2C(=O)Nc2cccc(F)c2C)ccc1F (racemic) please.
80

Suppose we examine the molecule CN1C[C@H](c2ccc(F)c(C#N)c2)[C@@H](C(=O)Nc2ccccc2S(C)(=O)=O)C1=O (racemic) ; what pest or weed control at 62.5 g/ha value has been reported?
10

meta.source: patent US12077503B2
